- assay_protocol: Solubility study of Form A of the compound of formula (I) in solvents (aliquot addition, visual)
- Assay type: physicochemical
- experimental_conditions: organic solvent or mixture, thermodynamic from solid; ethyl acetate, room temperature; read-out: Approximate Solubility
measure: solubility (mg/mL)
Write the value in mg/mL as a bare number.

Which solubility is reported for this compound? Cc1cc(NC(=O)[C@H](O)c2cc(F)cc(F)c2)ccc1-c1cnc(N)c(C(=O)NC(C)C)c1 [Form A of the compound of formula (I)]
26

###

- assay_protocol: Phase 1a study: pharmacokinetics after oral BID dosing in subjects with advanced solid tumors
- Assay type: in vivo, human
- experimental_conditions: human, in vivo, po, 400 mg, 400 mg single oral dose, Cycle 1 Day 1, geometric mean, N = 3; interpret with caution, terminal elimination phase not well captured; read-out: t1/2 (converted)
Structures can show the parent of a compound that is named as a salt.
measure: half-life (h)
Provide the reading as a plain figure in h.

half-life for Cc1cc(NC(=O)[C@H](O)c2cc(F)cc(F)c2)ccc1-c1cnc(N)c(C(=O)NC(C)C)c1 [Form A of the hemi-fumarate salt] ?
6.79

###

- assay_protocol: Phase 1a study: pharmacokinetics after oral BID dosing in subjects with advanced solid tumors
- Type: in vivo, human
- experimental_conditions: human, in vivo; 200 mg single oral dose, Cycle 1 Day 1, geometric mean, N = 5
Counter-ions that a name gives are not always drawn.
measure: AUC(0-inf)

Look up AUC(0-inf): Cc1cc(NC(=O)[C@H](O)c2cc(F)cc(F)c2)ccc1-c1cnc(N)c(C(=O)NC(C)C)c1 [Form A of the hemi-fumarate salt]
18000 ng·h/mL

###

- assay_protocol: Phase 1a study: pharmacokinetics after oral BID dosing in subjects with advanced solid tumors
- Type: in vivo, human
- experimental_conditions: human, in vivo, po, 25 mg, 25 mg twice daily oral, Cycle 1 Day 21, N = 3; read-out: Vz/F
Where a name gives a salt, the structure may show the parent alone.
measure: Vd/F (L)
Your answer is read as L, so omit the unit and give the number.

Name the recorded Vd/F for Cc1cc(NC(=O)[C@H](O)c2cc(F)cc(F)c2)ccc1-c1cnc(N)c(C(=O)NC(C)C)c1 [Form A of the hemi-fumarate salt] .
150

###

- assay_protocol: Phase 1a study: pharmacokinetics after oral BID dosing in subjects with advanced solid tumors
- Type: in vivo, human
- experimental_conditions: human, in vivo; 25 mg single oral dose, Cycle 1 Day 1, geometric mean, N = 3
Where a name gives a salt, the structure may show the parent alone.
measure: AUC(0-inf) (µg·h/mL)
Number in µg·h/mL, nothing else.

I would be grateful if you could share the reported AUC(0-inf) for Cc1cc(NC(=O)[C@H](O)c2cc(F)cc(F)c2)ccc1-c1cnc(N)c(C(=O)NC(C)C)c1 [Form A of the hemi-fumarate salt] .
2.2

###

- assay_protocol: Phase 1a study: pharmacokinetics after oral BID dosing in subjects with advanced solid tumors
- Assay type: in vivo, human
- experimental_conditions: human, in vivo, po, 400 mg, 400 mg twice daily oral, Cycle 1 Day 21, N = 2; read-out: Vz/F
Counter-ions that a name gives are not always drawn.
measure: Vd/F (L)
Write the answer as a number in L, unit excluded.

For Cc1cc(NC(=O)[C@H](O)c2cc(F)cc(F)c2)ccc1-c1cnc(N)c(C(=O)NC(C)C)c1 [Form A of the hemi-fumarate salt] , what is its reported Vd/F?
122

###

- assay_protocol: Solubility of mono-fumarate Form A estimated by solvent addition, visual assessment
- Format: physicochemical
- experimental_conditions: MeCN, organic solvent or mixture, thermodynamic from solid, MeCN; read-out: Solubility
Where a name gives a salt, the structure may show the parent alone.
measure: solubility

Look at this compound and give its reported solubility. Cc1cc(NC(=O)[C@H](O)c2cc(F)cc(F)c2)ccc1-c1cnc(N)c(C(=O)NC(C)C)c1 [Form A of the mono-fumarate salt]
> 2200 µg/mL

###

- assay_protocol: Phase 1a study: pharmacokinetics after oral BID dosing in subjects with advanced solid tumors
- Type: in vivo, human
- experimental_conditions: human, in vivo, po, 600 mg, 600 mg twice daily oral, Cycle 1 Day 21, point estimate, N = 1
Structures can show the parent of a compound that is named as a salt.
measure: Tmax (h)
Respond numerically; units are h and should not be typed.

For the compound shown here, Cc1cc(NC(=O)[C@H](O)c2cc(F)cc(F)c2)ccc1-c1cnc(N)c(C(=O)NC(C)C)c1 [Form A of the hemi-fumarate salt] , give the reported Tmax.
12

###

- assay_protocol: Solubility in water and biologically relevant media (SGF, FeSSIF, FaSSIF), HPLC, pH, XRPD
- Assay type: physicochemical
- experimental_conditions: pH 2.97, thermodynamic from solid; Water, 37° C., 2 hours
Structures can show the parent of a compound that is named as a salt.
measure: solubility at 2 h (µg/mL)
// units = µg/mL; emit number, no label

For the molecule shown here, Cc1cc(NC(=O)[C@H](O)c2cc(F)cc(F)c2)ccc1-c1cnc(N)c(C(=O)NC(C)C)c1 [Form A of the hemi-fumarate salt] , give the reported solubility at 2 h.
81

###

- assay_protocol: Phase 1a study: pharmacokinetics after oral BID dosing in subjects with advanced solid tumors
- Type: in vivo, human
- experimental_conditions: human, in vivo, po, 25 mg, 25 mg single oral dose, Cycle 1 Day 1, geometric mean, N = 3; read-out: Vz/F
Where a name gives a salt, the structure may show the parent alone.
measure: Vd/F (L)
Number in L, nothing else.

Entry Cc1cc(NC(=O)[C@H](O)c2cc(F)cc(F)c2)ccc1-c1cnc(N)c(C(=O)NC(C)C)c1 [Form A of the hemi-fumarate salt] has what Vd/F?
147

###

- assay_protocol: Solubility study of Form A of the compound of formula (I) in solvents (aliquot addition, visual)
- Assay type: physicochemical
- experimental_conditions: organic solvent or mixture, thermodynamic from solid; isopropyl alcohol, room temperature; read-out: Approximate Solubility
measure: solubility (mg/mL)
The response must be a number in mg/mL with no trailing unit.

Quick check: solubility of Cc1cc(NC(=O)[C@H](O)c2cc(F)cc(F)c2)ccc1-c1cnc(N)c(C(=O)NC(C)C)c1 [Form A of the compound of formula (I)] ?
14

###

- assay_protocol: Solubility of hemi-fumarate Form A by visual assessment upon solvent addition
- Assay type: physicochemical
- experimental_conditions: EtOAc, organic solvent or mixture, thermodynamic from solid, EtOAc; read-out: Solubility
Where a name gives a salt, the structure may show the parent alone.
measure: solubility

Please give the measured solubility for this compound: Cc1cc(NC(=O)[C@H](O)c2cc(F)cc(F)c2)ccc1-c1cnc(N)c(C(=O)NC(C)C)c1 [Form A of the hemi-fumarate salt]
> 9800 µg/mL

###

- assay_protocol: Phase 1a study: pharmacokinetics after oral BID dosing in subjects with advanced solid tumors
- Assay type: in vivo, human
- experimental_conditions: human, in vivo, po, 400 mg, 400 mg twice daily oral, Cycle 1 Day 21, median, N = 2
Counter-ions that a name gives are not always drawn.
measure: Tmax

Field request: Tmax | item: Cc1cc(NC(=O)[C@H](O)c2cc(F)cc(F)c2)ccc1-c1cnc(N)c(C(=O)NC(C)C)c1 [Form A of the hemi-fumarate salt]
2.5 h

###

- assay_protocol: Solubility in water and biologically relevant media (SGF, FeSSIF, FaSSIF), HPLC, pH, XRPD
- Format: physicochemical
- experimental_conditions: pH 6.36, thermodynamic from solid; FaSSIF, 37° C., 2 hours
- Protocol: HPLC analysis was performed with an Agilent HPLC 1260 series instrument. The solubility of the Form A of the hemi-fumarate salt was evaluated in water and biologically relevant media, SGF, FeSSIF, and FaSSIF. About 10 mg of the sample was weighed into sample vials and then 2 mL of three bio-relevant media and water were added to each respective sample to make suspensions. All suspensions were shaken at 37° C. with 200 rpm. […]
Structures can show the parent of a compound that is named as a salt.
measure: solubility at 2 h (µg/mL)
State the answer as a number, implicitly in µg/mL.

Entry Cc1cc(NC(=O)[C@H](O)c2cc(F)cc(F)c2)ccc1-c1cnc(N)c(C(=O)NC(C)C)c1 [Form A of the hemi-fumarate salt] : reported solubility at 2 h = ?
16

###

- assay_protocol: Phase 1a study: pharmacokinetics after oral BID dosing in subjects with advanced solid tumors
- Format: in vivo, human
- experimental_conditions: human, in vivo, po, 200 mg, 200 mg twice daily oral, Cycle 1 Day 21, N = 4; read-out: Vz/F
Counter-ions that a name gives are not always drawn.
measure: Vd/F (L)
Write the number in L without appending the unit.

Find the recorded Vd/F belonging to Cc1cc(NC(=O)[C@H](O)c2cc(F)cc(F)c2)ccc1-c1cnc(N)c(C(=O)NC(C)C)c1 [Form A of the hemi-fumarate salt] and report it.
79.4

###

- assay_protocol: Solubility of hemi-fumarate Form A by visual assessment upon solvent addition
- Format: physicochemical
- experimental_conditions: IPAc, organic solvent or mixture, thermodynamic from solid, IPAc; read-out: Solubility
- Protocol: The solubility of the Form A of the hemi-fumarate salt was evaluated by visual assessment of samples upon solvent addition, employing organic solvents and water. Among the solvents, the Form A of the hemi-fumarate salt had the highest solubility in THF, MeOH, EtOH and acetone (>50 mg/mL).
Structures can show the parent of a compound that is named as a salt.
measure: solubility

For the compound Cc1cc(NC(=O)[C@H](O)c2cc(F)cc(F)c2)ccc1-c1cnc(N)c(C(=O)NC(C)C)c1 [Form A of the hemi-fumarate salt] , what solubility is on record?
> 2100 µg/mL
